Test system: Aryl hydrocarbon receptor (Homo sapiens)
Assay explanation: ATG_Ahr_CIS: Attagene CIS-FACTORIAL HepG2 Assay for human Aryl Hydrocarbon Receptor (Ahr) (AID 2282930)
Test parameters: HepG2 AhR cis-factorial reporter transcription; actives raise or lower the signal
The source made the active and inactive calls. The calls were made as follows: active = hit-call score of the fitted dose curve at least 0.9, where 1 is the maximum; inactive = score below 0.9.
Can you answer with just one of these options? yes for active, no for inactive

The following compounds have reported results that may help.
| Smiles str | Class |
| --- | --- |
| COCCOCCOC | no |
| Nc1ccc(S(=O)(=O)c2ccc(N)cc2)cc1 | no |
| CCCCCCCCCCO | no |
| CCCCCCCCCCC | no |
| C=CCOC(=O)c1ccccc1C(=O)OCC=C | no |

Task: Test call for this compound, please: O=c1c(O)c(-c2ccc(O)c(O)c2)oc2cc(O)cc(O)c12
Result: yes

Task: Which result was noted for this compound in the test: CCCCCCCCCCCCCCCCCC(=O)O
Result: no

* * *

Assay explanation: ATG_AP_1_CIS: Attagene CIS-FACTORIAL HepG2 Assay for human Activator Protein 1 (AP-1) (AID 2282931)
Test parameters: HepG2 Attagene cis-factorial AP-1 reporter mRNA; actives raise or lower the signal
Calls of active or inactive are those of the source. Rule for the calls: active = hit-call score of the fitted dose curve at least 0.9, where 1 is the maximum; inactive = score below 0.9.
Just give me one of these, please: True (active), False (inactive)

Example results:
| Compound | Class |
| --- | --- |
| CC(=O)Oc1ccccc1C(=O)O | True |
| Clc1cc(Cl)c(Cl)cc1Cl | False |
| CC(CO)OC(C)CO (stereo not given) (tested in a mixture with another compound) | False |
| Cc1ccc(C(C)C)c(O)c1 | False |

Could you now look at the following compound, please?
Task: Which outcome was entered for the compound CCCCCCCCCCCC(=O)OC in this test?
Result: False

* * *

Assay explanation: APR_HepG2_MicrotubuleCSK_72hr: Apredica 72-hour HepG2 Assay for Microtubule CSK Stabilty (AID 2282919)
Test parameters: HepG2 microtubule cytoskeleton, high-content imaging, actives raise or lower the signal
Calls of active or inactive are those of the source. The calls were made as follows: active = hit-call score of the fitted dose curve at least 0.9, where 1 is the maximum; inactive = score below 0.9.
Just give me one of these, please: active, inactive

| Compound | Class |
| --- | --- |
| C[C@]12C=CC(=O)C=C1CC[C@@H]1[C@@H]2C(=O)C[C@@]2(C)[C@H]1CC[C@]2(O)C(=O)CO | inactive |
| CC=Cc1ccc(O)c(OC)c1 | inactive |
| C1CCC(SSC2CCCCC2)CC1 | inactive |
| O=C(N[C@@H](Cc1ccccc1)[C@@H](O)C(=O)N1C[C@@H](O)[C@@H](O)C1)c1cc2cc(Cl)ccc2[nH]1 | inactive |
| CCCc1cc(=O)[nH]c(=S)[nH]1 | inactive |

Task: # lookup: test call for O=c1c(O)c(-c2ccc(O)c(O)c2)oc2cc(O)cc(O)c12
Result: inactive

Task: Entry COc1cc(-c2nc(NC(=O)c3cc4cc(C)cc(C)c4n3CC(=O)O)sc2CCC2CCCCC2)c(OC)cc1Cl : call = ?
Result: active

Task: Test call, this compound: CC(C)c1ccc(C(=O)N=C(N)N)cc1S(C)(=O)=O
Result: inactive

Task: Test call, this compound: COCCOC[C@H](CC1(C(=O)NC2CCC(C(=O)O)CC2)CCCC1)C(=O)Oc1ccc2c(c1)CCC2 (stereo partly specified)
Result: inactive

Task: So what was the verdict on Clc1cc(Cl)c(Cl)cc1Cl in this test?
Result: inactive
